Measured values drawn from patent US11155550B2 for this set.

UniProtKB Q96DB2 measurements of IC50, listed per entry.
Sequence (Q96DB2 whole entry): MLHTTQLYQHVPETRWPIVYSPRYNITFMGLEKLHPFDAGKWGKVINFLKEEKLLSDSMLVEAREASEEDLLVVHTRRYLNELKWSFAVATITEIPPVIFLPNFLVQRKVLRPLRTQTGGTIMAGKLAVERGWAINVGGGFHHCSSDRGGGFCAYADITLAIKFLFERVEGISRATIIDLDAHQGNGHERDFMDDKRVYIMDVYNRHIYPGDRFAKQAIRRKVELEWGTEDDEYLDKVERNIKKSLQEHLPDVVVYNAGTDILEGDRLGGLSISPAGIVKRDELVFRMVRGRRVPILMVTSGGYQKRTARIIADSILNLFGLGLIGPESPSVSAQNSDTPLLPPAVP
READOUT KIND: IC50 (µM)

Which measured IC50 value corresponds to CN(C)C(=O)N1CCC2(CC1)c1ccccc1C(=O)N2Cc1ccc(C(=O)NO)cc1 ?
4.1

Which measured IC50 value corresponds to O=C(NO)c1ccc(CN2C(=O)c3ccccc3C23CCN(C2CC2)CC3)cc1 ?
3.6

----------
# ASSAY TEXT: Mouse plasma PK after IV administration
# Assay type: in vivo
# CONDITION PARAMETERS: male, C57 Bl/6J, mouse, plasma, iv, 1 mg/kg, 1 mg/kg IV, individual mice (Mouse-1 to Mouse-3), read-out: T1/2 (converted)
READOUT KIND: half-life (min)
Write the answer as a number in min, unit excluded.

Which measured half-life value corresponds to CN1CCC2(CC1)CN(c1ccc(C(=O)Nc3cc(-c4cccs4)ccc3N)cn1)C(=O)O2 ?
51.6

----------
# TARGET OR SYSTEM: Complex of human HDAC3 and human NCOR2 (Homo sapiens)
# Construct: full-length with a C-terminal His tag, MW=49.7 kDa; His tag (C); made in house; host or cells: baculovirus expression system
# Sequence (O15379 whole entry): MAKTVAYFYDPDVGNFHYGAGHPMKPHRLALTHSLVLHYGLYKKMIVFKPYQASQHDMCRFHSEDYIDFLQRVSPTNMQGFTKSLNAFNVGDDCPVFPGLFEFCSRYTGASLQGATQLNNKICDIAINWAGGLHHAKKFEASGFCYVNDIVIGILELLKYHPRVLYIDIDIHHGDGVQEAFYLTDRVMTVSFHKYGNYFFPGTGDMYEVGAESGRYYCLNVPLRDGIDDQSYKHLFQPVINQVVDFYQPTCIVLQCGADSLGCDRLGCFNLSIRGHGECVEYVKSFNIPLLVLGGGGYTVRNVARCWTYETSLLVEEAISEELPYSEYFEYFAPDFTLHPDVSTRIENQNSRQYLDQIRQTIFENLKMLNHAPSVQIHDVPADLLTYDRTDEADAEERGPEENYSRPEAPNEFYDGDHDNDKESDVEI
# Sequence (Q9Y618 395-489 partner limits assumed): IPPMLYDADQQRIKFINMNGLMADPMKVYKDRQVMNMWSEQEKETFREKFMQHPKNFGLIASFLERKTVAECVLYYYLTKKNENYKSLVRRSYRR
# ASSAY TEXT: Biochemical HDAC enzymatic assay, HDAC3
# CONDITION PARAMETERS: Table 2; incubation time 10 min
# Protocol: Incubation time for HDAC1/2 is 120 min, and 10 min for other HDACs. […] The inhibitory activities of HDAC of compounds of the invention were determined using biochemical HDAC assays. […] The curve fit and IC50 values were calculated using the GraphPad Prism 4 program based on a sigmoidal dose-response equation. […]
READOUT KIND: IC50 (µM)

Which measured IC50 value corresponds to O=C(NO)c1ccc(CN2C(=O)c3ccccc3C23CCNCC3)cc1 ?
7

[P] O=C(NO)c1ccc(CN2C(=O)C3(CCOC3)c3ccccc32)cc1 (centres unmarked)
[Q] O=C(NO)c1ccc(CN2C(=O)c3ccccc3C23CCN(C2CC2)CC3)cc1
Endpoint returns whichever of P and Q has the numerically higher IC50. Write down the label of the entry you select.
P
(P: 21 µM, Q: 9.26 µM)

----------
# TARGET OR SYSTEM: Human HDAC2 (Homo sapiens)
# Construct: full-length with a C-terminal His-tag, MW=56 kDa; His-tag (C); made in house; host or cells: baculovirus expression system
# Sequence (Q92769 whole entry): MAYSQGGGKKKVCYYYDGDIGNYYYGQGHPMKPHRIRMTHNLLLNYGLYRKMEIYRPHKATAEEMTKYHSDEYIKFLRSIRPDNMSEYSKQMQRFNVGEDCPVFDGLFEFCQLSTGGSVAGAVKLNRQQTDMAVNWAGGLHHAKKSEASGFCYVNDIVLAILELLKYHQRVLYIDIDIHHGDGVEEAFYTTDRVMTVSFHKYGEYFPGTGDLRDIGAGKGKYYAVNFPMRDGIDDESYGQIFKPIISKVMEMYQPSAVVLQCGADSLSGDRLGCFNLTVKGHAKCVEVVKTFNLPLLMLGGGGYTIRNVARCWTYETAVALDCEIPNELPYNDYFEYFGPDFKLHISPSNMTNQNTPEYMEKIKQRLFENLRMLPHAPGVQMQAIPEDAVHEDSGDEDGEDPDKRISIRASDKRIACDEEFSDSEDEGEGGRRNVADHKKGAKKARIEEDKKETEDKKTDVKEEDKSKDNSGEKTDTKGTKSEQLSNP
# ASSAY TEXT: Biochemical HDAC enzymatic assay, HDAC2
# CONDITION PARAMETERS: Table 2; incubation time 120 min
pIC50: −log10 of the molar value.
READOUT KIND: pIC50

Which measured pIC50 value corresponds to CN(C)C(=O)N1CCC2(CC1)c1ccccc1C(=O)N2Cc1ccc(C(=O)NO)cc1 ?
< 5.00

Which measured pIC50 value corresponds to O=C(NO)c1ccc(CN2C(=O)c3ccccc3C23OCCO3)cc1 ?
< 5.00

Continuing:
Which measured pIC50 value corresponds to O=C(NO)c1ccc(CN2C(=O)c3ccccc3C23CCNCC3)cc1 ?
< 5.00

Which measured pIC50 value corresponds to O=C(NO)c1ccc(CN2C(=O)c3ccccc3C23CCN(C2CC2)CC3)cc1 ?
< 5.00

Which measured pIC50 value corresponds to O=C(NO)c1ccc(CN2C(=O)C3(CCOC3)c3ccccc32)cc1 (centres unmarked) ?
4.76

----------
# ASSAY TEXT: Mouse plasma PK after IV administration
# Assay type: in vivo
# CONDITION PARAMETERS: male, C57 Bl/6J, 1 mg/kg, IV administration
READOUT KIND: AUC

Which measured AUC value corresponds to CN1CCC2(CC1)CN(c1ccc(C(=O)Nc3cc(-c4cccs4)ccc3N)cn1)C(=O)O2 ?
~7.3 µM·h

----------
# TARGET OR SYSTEM: Recombinant human HDAC6 (Homo sapiens, UniProt Q9UBN7)
# Construct: full-length, MW=180 kDa; GST tag (N); made in house; host or cells: Sf9 insect cells (baculovirus)
# Sequence (Q9UBN7 1-1215): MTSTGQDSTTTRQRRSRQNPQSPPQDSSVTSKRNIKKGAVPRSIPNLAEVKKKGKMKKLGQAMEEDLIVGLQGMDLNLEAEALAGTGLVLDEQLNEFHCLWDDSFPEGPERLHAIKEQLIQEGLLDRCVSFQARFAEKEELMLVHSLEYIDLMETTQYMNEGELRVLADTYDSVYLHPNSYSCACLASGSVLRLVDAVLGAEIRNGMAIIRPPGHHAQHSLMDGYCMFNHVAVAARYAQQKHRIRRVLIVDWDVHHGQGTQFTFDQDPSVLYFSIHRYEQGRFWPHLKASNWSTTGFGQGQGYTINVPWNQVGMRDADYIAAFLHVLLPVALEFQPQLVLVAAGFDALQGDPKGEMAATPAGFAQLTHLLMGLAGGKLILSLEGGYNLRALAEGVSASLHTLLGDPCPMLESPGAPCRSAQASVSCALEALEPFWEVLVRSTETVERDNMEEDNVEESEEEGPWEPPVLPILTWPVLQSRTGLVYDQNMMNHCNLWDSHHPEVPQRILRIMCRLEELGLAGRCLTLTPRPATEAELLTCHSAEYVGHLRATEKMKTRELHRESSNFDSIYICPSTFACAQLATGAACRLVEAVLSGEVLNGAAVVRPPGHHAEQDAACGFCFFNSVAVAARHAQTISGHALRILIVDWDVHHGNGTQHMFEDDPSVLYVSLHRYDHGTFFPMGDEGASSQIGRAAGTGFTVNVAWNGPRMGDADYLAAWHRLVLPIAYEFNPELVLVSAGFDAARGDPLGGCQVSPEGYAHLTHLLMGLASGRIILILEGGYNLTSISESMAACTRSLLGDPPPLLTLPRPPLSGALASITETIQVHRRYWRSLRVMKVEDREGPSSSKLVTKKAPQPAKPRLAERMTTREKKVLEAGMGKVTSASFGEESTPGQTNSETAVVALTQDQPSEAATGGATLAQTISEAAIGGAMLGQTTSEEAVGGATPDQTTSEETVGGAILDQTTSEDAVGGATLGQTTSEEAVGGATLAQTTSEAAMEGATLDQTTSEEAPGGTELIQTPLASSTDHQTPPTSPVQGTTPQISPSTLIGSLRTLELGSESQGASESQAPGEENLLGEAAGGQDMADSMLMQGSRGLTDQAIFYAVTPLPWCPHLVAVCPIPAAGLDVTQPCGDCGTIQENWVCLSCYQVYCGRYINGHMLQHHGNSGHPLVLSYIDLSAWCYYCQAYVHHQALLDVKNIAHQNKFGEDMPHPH
# ASSAY TEXT: Biochemical HDAC enzymatic assay, HDAC6
# CONDITION PARAMETERS: Table 1; incubation time 10 min
pIC50: −log10 of the molar value.
Measured pIC50, listed per entry.

Before answering, review these 5 worked examples.
Form field - read-out: pIC50; system: Recombinant human HDAC6 (Homo sapiens, UniProt Q9UBN7); submitted item: CN1CCC2(CC1)CN(c1ccc(C(=O)Nc3cc(-c4cccs4)ccc3N)cn1)C(=O)O2 [Example 4]
< 4.70

Form field - read-out: pIC50; system: Recombinant human HDAC6 (Homo sapiens, UniProt Q9UBN7); submitted item: Nc1ccc(-c2cccs2)cc1NC(=O)c1ccc(CN2C(=O)CCC23CCNCC3)cc1 [Example 2]
< 4.70

Form field - read-out: pIC50; system: Recombinant human HDAC6 (Homo sapiens, UniProt Q9UBN7); submitted item: Nc1cc(F)ccc1NC(=O)c1ccc(CN2C(=O)CCCC23CNC3)cc1 [Example 3]
< 5.00

Form field - read-out: pIC50; system: Recombinant human HDAC6 (Homo sapiens, UniProt Q9UBN7); submitted item: Nc1ccc(-c2ccc(F)cc2)cc1NC(=O)c1ccc(N2CC3(CCOCC3)OC2=O)nc1 [Example 5]
< 4.70

Form field - read-out: pIC50; system: Recombinant human HDAC6 (Homo sapiens, UniProt Q9UBN7); submitted item: Nc1ccc(-c2cccs2)cc1NC(=O)c1ccc(CN2C(=O)CCCC23CNC3)cc1 [Example 1]
< 4.70

Continuing:
Form field - read-out: pIC50; system: Recombinant human HDAC6 (Homo sapiens, UniProt Q9UBN7); submitted item: Nc1ccc(-c2cccs2)cc1NC(=O)c1ccc(N2CC3(CCNCC3)CCC2=O)nc1 [Example 6]
< 4.70

----------
# TARGET OR SYSTEM: Human HDAC5 (Homo sapiens)
# Sequence (Q9UQL6 whole entry): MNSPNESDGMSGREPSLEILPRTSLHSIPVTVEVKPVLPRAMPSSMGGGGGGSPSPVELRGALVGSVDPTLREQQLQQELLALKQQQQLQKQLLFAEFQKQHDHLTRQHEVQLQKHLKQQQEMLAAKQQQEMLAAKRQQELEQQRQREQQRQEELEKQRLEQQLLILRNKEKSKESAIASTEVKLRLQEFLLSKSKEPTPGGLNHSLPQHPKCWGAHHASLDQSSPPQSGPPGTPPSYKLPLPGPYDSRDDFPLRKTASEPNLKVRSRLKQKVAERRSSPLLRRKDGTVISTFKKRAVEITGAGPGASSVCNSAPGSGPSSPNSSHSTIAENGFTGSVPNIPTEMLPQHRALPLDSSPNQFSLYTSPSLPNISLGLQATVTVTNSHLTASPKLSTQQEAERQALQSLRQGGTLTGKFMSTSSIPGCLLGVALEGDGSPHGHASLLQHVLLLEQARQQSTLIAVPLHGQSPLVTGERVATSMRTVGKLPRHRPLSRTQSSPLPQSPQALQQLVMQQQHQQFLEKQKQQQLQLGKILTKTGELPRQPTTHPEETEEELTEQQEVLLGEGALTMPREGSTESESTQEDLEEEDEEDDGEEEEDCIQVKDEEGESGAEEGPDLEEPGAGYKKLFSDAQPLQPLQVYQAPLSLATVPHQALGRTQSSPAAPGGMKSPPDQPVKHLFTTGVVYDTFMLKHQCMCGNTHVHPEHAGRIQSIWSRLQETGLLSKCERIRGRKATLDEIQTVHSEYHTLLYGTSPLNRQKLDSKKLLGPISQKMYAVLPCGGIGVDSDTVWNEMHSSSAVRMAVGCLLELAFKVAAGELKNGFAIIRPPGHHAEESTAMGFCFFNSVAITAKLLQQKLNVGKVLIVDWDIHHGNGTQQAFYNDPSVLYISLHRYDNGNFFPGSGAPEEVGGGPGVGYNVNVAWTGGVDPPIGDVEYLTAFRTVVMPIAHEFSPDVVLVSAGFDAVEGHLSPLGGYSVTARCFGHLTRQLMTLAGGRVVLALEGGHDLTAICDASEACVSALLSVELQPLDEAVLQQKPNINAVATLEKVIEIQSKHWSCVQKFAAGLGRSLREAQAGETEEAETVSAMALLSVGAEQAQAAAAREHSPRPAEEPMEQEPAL
READOUT KIND: IC50

Form field - read-out: IC50; system: Human HDAC5 (Homo sapiens); submitted item: O=C(NO)c1ccc(CN2C(=O)c3ccccc3C23CCN(C2CC2)CC3)cc1
> 10 µM

----------
# ASSAY TEXT: Mouse plasma PK after IV administration
# Assay type: in vivo
# CONDITION PARAMETERS: male, C57 Bl/6J, mouse, plasma, iv, 1 mg/kg, 1 mg/kg IV, Average, read-out: AUCINF_obs (converted)
READOUT KIND: AUC(0-inf) (ng·h/mL)
Write the answer as a number in ng·h/mL, unit excluded.

Which measured AUC(0-inf) value corresponds to CN1CCC2(CC1)CN(c1ccc(C(=O)Nc3cc(-c4cccs4)ccc3N)cn1)C(=O)O2 [Example 4] ?
3420
